Entry source: patent EP4786492A1

- Test System: mouse DLL3 on CHO-K1-mDLL3 cells (mouse) (UniProt O88516)
- Sequence (O88516 other isoform, or with tags, fused parts or gaps limits assumed): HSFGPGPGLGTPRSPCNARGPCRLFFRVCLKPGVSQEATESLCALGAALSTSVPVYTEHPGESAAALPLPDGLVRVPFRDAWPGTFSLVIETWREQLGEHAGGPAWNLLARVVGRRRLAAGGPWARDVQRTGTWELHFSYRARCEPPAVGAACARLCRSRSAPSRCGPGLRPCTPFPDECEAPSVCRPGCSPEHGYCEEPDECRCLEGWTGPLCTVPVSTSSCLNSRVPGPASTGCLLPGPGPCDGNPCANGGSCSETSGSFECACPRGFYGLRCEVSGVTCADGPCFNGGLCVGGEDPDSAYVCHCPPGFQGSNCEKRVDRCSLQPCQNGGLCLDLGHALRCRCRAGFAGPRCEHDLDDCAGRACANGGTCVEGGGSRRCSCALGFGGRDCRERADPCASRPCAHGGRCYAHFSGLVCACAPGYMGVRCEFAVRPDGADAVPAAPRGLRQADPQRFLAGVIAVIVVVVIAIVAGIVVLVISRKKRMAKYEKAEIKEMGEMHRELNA
- Assay Explanation: FACS, CHO-K1-mDLL3 cells, 100 nM antibody
Readout Label: MFI (MFI)
Provide the reading as a plain figure in MFI.

Known results for binders:
Binder | MFI / MFI
Hab015VL4VH6a-hFc (scFv, part only; not given: scFv linker and human IgG1 Fc, V domains shown, not shown: another chain or arm of the molecule; a dimerising Fc or GST; small tags and cut ends) VL: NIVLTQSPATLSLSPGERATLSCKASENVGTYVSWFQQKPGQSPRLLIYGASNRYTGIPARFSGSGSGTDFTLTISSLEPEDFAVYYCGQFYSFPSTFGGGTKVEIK VH: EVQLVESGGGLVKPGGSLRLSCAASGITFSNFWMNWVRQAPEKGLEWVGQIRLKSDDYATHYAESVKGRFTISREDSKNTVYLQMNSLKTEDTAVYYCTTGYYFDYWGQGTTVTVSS | 1590
Hab015VL5VH6a-hFc (scFv, part only; not given: scFv linker and human IgG1 Fc, V domains shown, not shown: another chain or arm of the molecule; a dimerising Fc or GST; small tags and cut ends) VL: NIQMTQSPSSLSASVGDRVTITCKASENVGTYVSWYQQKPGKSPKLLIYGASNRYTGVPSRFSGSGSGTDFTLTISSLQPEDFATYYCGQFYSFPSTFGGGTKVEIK VH: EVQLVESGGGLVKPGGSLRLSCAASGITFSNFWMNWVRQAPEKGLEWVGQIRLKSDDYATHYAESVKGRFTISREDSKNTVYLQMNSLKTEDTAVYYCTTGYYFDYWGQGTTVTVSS | 1530

Next binder, MFI to be filled in.
Input Hab006VL4VH1-hFc (scFv, part only; not given: scFv linker and human IgG1 Fc, V domains shown, not shown: another chain or arm of the molecule; a dimerising Fc or GST; small tags and cut ends) VL: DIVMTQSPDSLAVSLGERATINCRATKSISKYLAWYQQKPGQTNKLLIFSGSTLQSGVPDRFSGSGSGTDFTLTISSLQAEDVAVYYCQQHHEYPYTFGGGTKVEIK VH: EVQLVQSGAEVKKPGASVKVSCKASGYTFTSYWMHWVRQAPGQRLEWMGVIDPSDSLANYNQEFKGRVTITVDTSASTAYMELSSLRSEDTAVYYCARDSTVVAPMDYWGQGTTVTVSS . Output MFI: 554
